All values here come from the supplement of paper PMC5579334.

- System: S1507-2
- TEST_PROTOCOL: relative IC50 (inflection point of fitted dose-response curve, CellTox-Green cytotoxicity, 72 h; top asymptote may be below 50%); higher = less potent
Here, each record is paired with measured relative IC50 data.

{"MOLECULE": "CN(Cc1cnc2nc(N)nc(N)c2n1)c1ccc(C(=O)N[C@@H](CCC(=O)O)C(=O)O)cc1 [Methotrexate]", "relative IC50": "> 5 µM"}
{"MOLECULE": "Nc1ccccc1NC(=O)c1ccc(CNc2nccc(-c3cccnc3)n2)cc1", "relative IC50": "3.73 µM"}
{"MOLECULE": "O=C(CCCCCCC(=O)Nc1ccccc1)NO", "relative IC50": "2.66 µM"}
{"MOLECULE": "Cc1ccc(C(=O)N(CCCN)[C@@H](c2oc3cc(Cl)ccc3c(=O)c2Cc2ccccc2)C(C)C)cc1", "relative IC50": "> 0.1 µM"}
{"MOLECULE": "CO[C@H]1[C@@H](N(C)C(=O)c2ccccc2)C[C@@H]2O[C@@]1(C)n1c3ccccc3c3c4c(c5c6ccccc6n2c5c31)C(=O)NC4", "relative IC50": "0.395 µM"}
{"MOLECULE": "Cc1cc(C(C)Nc2ccccc2)c2nc(N3CCOCC3)cc(=O)n2c1 (stereo unspecified)", "relative IC50": "> 10 µM"}
{"MOLECULE": "CCC1=C[C@@H]2CN(C1)Cc1c([nH]c3ccccc13)[C@@](C(=O)OC)(c1cc3c(cc1OC)N(C)[C@H]1[C@@](O)(C(=O)OC)[C@H](OC(C)=O)[C@]4(CC)C=CCN5CC[C@]31[C@@H]54)C2", "relative IC50": "0.129 µM"}
{"MOLECULE": "CC(C)(C)c1cc(NC(=O)Nc2ccc(-c3cn4c(n3)sc3cc(OCCN5CCOCC5)ccc34)cc2)no1", "relative IC50": "> 1 µM"}
{"MOLECULE": "CC(C)n1cnc2c(NCCc3ccc(O)cc3)nc(-c3csc4ccccc34)nc21", "relative IC50": "> 10 µM"}
{"MOLECULE": "CCc1cncnc1N1CCN(Cc2nc3ccc(C(F)(F)F)cc3[nH]2)CC1", "relative IC50": "> 10 µM"}
{"MOLECULE": "CN1CCN(CCOc2cc(OC3CCOCC3)c3c(Nc4c(Cl)ccc5c4OCO5)ncnc3c2)CC1", "relative IC50": "0.0995 µM"}
{"MOLECULE": "OC[C@H]1O[C@@H](n2cnc3c2N=CNC[C@H]3O)C[C@@H]1O", "relative IC50": "> 10 µM"}
{"MOLECULE": "COC(=O)c1ccc2c(c1)NC(=O)/C2=C(\\Nc1ccc(N(C)C(=O)CN2CCN(C)CC2)cc1)c1ccccc1", "relative IC50": "> 10 µM"}
{"MOLECULE": "CN1CCN(c2nc(C3=C(c4c[nH]c5ccccc45)C(=O)NC3=O)c3ccccc3n2)CC1", "relative IC50": "> 10 µM"}
{"MOLECULE": "CCCS(=O)(=O)Nc1ccc(F)c(C(=O)c2c[nH]c3ncc(-c4ccc(Cl)cc4)cc23)c1F", "relative IC50": "> 10 µM"}
{"MOLECULE": "COc1cc2c(N3CCN(C(=O)Nc4ccc(OC(C)C)cc4)CC3)ncnc2cc1OCCCN1CCCCC1", "relative IC50": "> 1 µM"}

----------
Listing of recorded drug sensitivity score by entry.
- System: HSC2 (primary human Schwann cells)
- TEST_PROTOCOL: drug sensitivity score (DSS, CellTiter-Glo viability, 72 h) (DSS (dimensionless)); higher = more sensitive; extreme values may be limits of the assay

{"MOLECULE": "C[C@@H](C(=O)O)c1ccc(-c2ccccc2)c(F)c1 [Tarenflurbil] (max concentration tested 10000 nM)", "ASSAY_TARGET": "HSC2 (primary human Schwann cells)", "drug sensitivity score": 0}
{"MOLECULE": "Nc1nccc(-c2c(-c3ccc(F)cc3)ncn2C2CCCCC2)n1 (max concentration tested 10000 nM)", "ASSAY_TARGET": "HSC2 (primary human Schwann cells)", "drug sensitivity score": 0}
{"MOLECULE": "CS(=O)(=O)N1CCN(Cc2cc3nc(-c4cccc5[nH]ncc45)nc(N4CCOCC4)c3s2)CC1 [Pictilisib] (max concentration tested 10000 nM)", "ASSAY_TARGET": "HSC2 (primary human Schwann cells)", "drug sensitivity score": 7.76}
{"MOLECULE": "Cc1ccc(-c2cc(C(F)(F)F)nn2-c2ccc(S(N)(=O)=O)cc2)cc1 [Celecoxib] (max concentration tested 10000 nM)", "ASSAY_TARGET": "HSC2 (primary human Schwann cells)", "drug sensitivity score": 0}
{"MOLECULE": "CN(C)C[C@@H]1CCn2cc(c3ccccc32)C2=C(C(=O)NC2=O)c2cn(c3ccccc23)CCO1 [Ruboxistaurin] (max concentration tested 10000 nM)", "ASSAY_TARGET": "HSC2 (primary human Schwann cells)", "drug sensitivity score": 7.78}
{"MOLECULE": "COc1cc2nccc(Oc3ccc(NC(=O)C4(C(=O)Nc5ccc(F)cc5)CC4)cc3)c2cc1OC [Cabozantinib] (max concentration tested 1000 nM)", "ASSAY_TARGET": "HSC2 (primary human Schwann cells)", "drug sensitivity score": 0}

----------
- System: HS-Sch-2
- TEST_PROTOCOL: % inhibition of CellTiter-Glo viability at highest tested concentration (72 h), relative to DMSO and benzethonium chloride controls; higher = more inhibition
Quick rule: % inhibition of at least 70% means TRUE, below that means FALSE.

{"COMPOUND": "CCCS(=O)(=O)Nc1ccc(F)c(C(=O)c2c[nH]c3ncc(-c4ccc(Cl)cc4)cc23)c1F [Vemurafenib] (max concentration tested 10000 nM)", "CLASSIFICATION": "FALSE"}
{"COMPOUND": "CS(=O)(=O)CCNCc1ccc(-c2ccc3ncnc(Nc4ccc(OCc5cccc(F)c5)c(Cl)c4)c3c2)o1 [Lapatinib] (max concentration tested 1000 nM)", "CLASSIFICATION": "FALSE"}
{"COMPOUND": "CC1(C)NC(=O)N(c2ccc([N+](=O)[O-])c(C(F)(F)F)c2)C1=O [Nilutamide] (max concentration tested 10000 nM)", "CLASSIFICATION": "FALSE"}
{"COMPOUND": "CN(C)Cc1ccc(S(=O)(=O)n2ccc(/C=C/C(=O)NO)c2)cc1 [Resminostat] (max concentration tested 10000 nM)", "CLASSIFICATION": "TRUE"}
{"COMPOUND": "COc1cc2c(NC3CCN(C(C)C)CC3)nc(C3CCCCC3)nc2cc1OCCCN1CCCC1 [UNC0638] (max concentration tested 10000 nM)", "CLASSIFICATION": "TRUE"}

----------
- System: YST-1
- TEST_PROTOCOL: drug sensitivity score (DSS, CellTiter-Glo viability, 72 h) (DSS (dimensionless)); higher = more sensitive; extreme values may be limits of the assay

{"COMPOUND": "COc1ccc(-c2ccc3ncc4c(c3c2)n(-c2ccc(N3CCNCC3)c(C(F)(F)F)c2)c(=O)n4C)cn1 [NVP-BGT226] (max concentration tested 1000 nM)", "drug sensitivity score": 19.7}
{"COMPOUND": "NC(=O)c1cccc2cn(-c3ccc(C4CCCNC4)cc3)nc12 (stereo not drawn) [Niraparib] (max concentration tested 10000 nM)", "drug sensitivity score": 7.91}
{"COMPOUND": "NC1(C(=O)N[C@@H](CCO)c2ccc(Cl)cc2)CCN(c2ncnc3[nH]ccc23)CC1 [AZD-5363] (max concentration tested 10000 nM)", "drug sensitivity score": 4.35}

----------
- Tested on: HS-PSS
- TEST_PROTOCOL: drug sensitivity score (DSS, CellTox-Green cytotoxicity, 72 h) (DSS (dimensionless)); higher = more cytotoxic; extreme values may be limits of the assay
I would appreciate it if you labelled entries criterion met when drug sensitivity score is 3 or higher, otherwise criterion not met.

{"COMPOUND": "COc1ccc(-c2nc(N3CCOCC3)c3sc(CN(C)c4ncc(C(=O)NO)cn4)cc3n2)cn1 [CUDC-907] (max concentration tested 10000 nM)", "CLASSIFICATION": "criterion met"}
{"COMPOUND": "C[C@@H](Oc1cc(-n2cnc3ccc(CN4CCN(C)CC4)cc32)sc1C(N)=O)c1ccccc1C(F)(F)F (max concentration tested 10000 nM)", "CLASSIFICATION": "criterion met"}
{"COMPOUND": "Cn1cc(-c2ccc3nnc(C(F)(F)c4ccc5ncccc5c4)n3n2)cn1 (max concentration tested 10000 nM)", "CLASSIFICATION": "criterion not met"}
{"COMPOUND": "c1ccc2c(CCNc3ccc(Nc4ccncc4)cc3)c[nH]c2c1 [Serdemetan] (max concentration tested 10000 nM)", "CLASSIFICATION": "criterion met"}
{"COMPOUND": "CC(C)Oc1ccc(C(=O)N[C@H](CNC(=O)CN(C)C)Cc2ccc(-c3cn4cccc([C@H](C)O)c4n3)cc2)cc1Cl (max concentration tested 10000 nM)", "CLASSIFICATION": "criterion not met"}
